Here, each record is paired with measured GI50 data.
test system: PC-3 prostate; experiment: NCI tumour cell line growth inhibition, 48 h

Past entries and their recorded results:
- compound: "CCCCCCCC(=O)SCC/C=C/[C@@H]1CC(=O)NCc2cccc(n2)C2=N[C@@](C)(CS2)C(=O)N[C@@H](C(C)C)C(=O)O1"
  measured.property: "GI50"
  reported.measurement: "43.7 nM"
- compound: "C[C@@]1([C@H](OC(=O)c2cccc3ccccc23)C(N)=O)CO1"
  measured.property: "GI50"
  reported.measurement: "3200 nM"

Task: Look up GI50 for this compound: C=CC1CC12C(=O)C1OC2(C)C2C(=O)c3c(O)cccc3C(=O)C12 (centres undefined)
Result: 25700 nM

Task: I am curious: what GI50 value has been reported for `O=C(/C=C/c1ccccc1)Nc1ncc(Cc2ccccc2)s1` ?
Result: 275 nM

Data origin: PubChem BioAssay (NCI)
